tested on: SK-MEL-5; experiment: NCI tumour cell line growth inhibition, 48 h
Calls of active or inactive are those of the source. Rule as the data show it: active = GI50 up to about 1.1 µM and inactive = higher.
Reported property: GI50

INSERT INTO assay_data (compound, meas_value) VALUES
  ('Cc1nc2cn3c(c2c(=O)[nH]1)CCCCC3', '> 100 µM (inactive)'),
  ('CCCCc1ccc(Nc2nc(Cl)c3ncn(C4CC(Oc5ccc(C)cc5)C(COc5ccc(C)cc5)O4)c3n2)cc1 (stereo unspecified)', '> 100 µM (inactive)');

Q: Which GI50 reading was recorded for the compound `COc1cc(Br)cc2cc(C3=CSC4=NCCN34)c(=O)oc12` ?
Result: 20 µM (inactive)

Q: Give its GI50 value. Item: Cc1ccc(NC(=O)CCC(=O)C(C#N)c2ccc(Cl)cc2)cc1C (stereo unspecified)
Result: > 100 µM (inactive)

Q: GET /values?readout=GI50&item= `CSc1nc2c(N)ncnc2n1C`
Result: > 100 µM (inactive)

Q: Value lookup for GI50; key = CC1CC(NC2CCCCC2)=Nc2ccccc2N1Cc1ccccc1 (stereo unspecified)
Result: 2.43 µM (inactive)

----------
test system: DU-145; assay: NCI tumour cell line growth inhibition, 48 h
Active and inactive are the calls of the source. Rule as the data show it: active = GI50 up to about 1.1 µM and inactive = higher.
Below, each of the compounds is paired with its reported GI50 value.

INSERT INTO assay_data (compound, assayed_target, meas_value) VALUES
  ('CC(=O)OCC1OC(n2c3c(c(-c4ccc(C)cc4)c(C#N)c2=S)C(=O)CC(C)(C)C3)C(OC(C)=O)C(OC(C)=O)C1OC(C)=O (stereo unspecified)', 'DU-145', '50.4 µM (inactive)');

Q: // lookup GI50 | system=DU-145 | key= `O=C1CCC[C@@H]2NC[C@@H](c3ccc4c(c3)OCO4)[C@H]12`
Result: > 25 µM (inactive)

Q: Lab note: need GI50 for COC(=O)C1=C(C=O)C2C=CC1C2 (stereo unspecified) on DU-145, anyone have it?
Result: > 100 µM (inactive)

Q: Look up GI50 with DU-145 for this compound: `C=CCN1C(=O)/C(=C/c2ccc(OC)cc2)NC1=S`
Result: > 100 µM (inactive)

Q: Which GI50 is reported with DU-145 for this entry: `O=c1c(NO)c([N+](=O)[O-])cnn1-c1ccccc1` ?
Result: 13.8 µM (inactive)

Q: Find the measured GI50: item `CN(C)CN1C(=O)S/C(=C2\C(=O)N(CN(C)C)c3ccccc32)C1=O` , target or system DU-145.
Result: 32.1 µM (inactive)

Q: Form field: GI50 recorded for COc1ccccc1C1C2=C(COC2=O)OC(C)(C)Oc2cc3c(cc21)OCO3 (stereo unspecified) with DU-145 (enter value)
Result: 3.57 µM (inactive)

Q: Which GI50 is reported with DU-145 for this entry: CC(=O)C1=C(C)N(c2ccc(C)cc2)C2(O)C=CC(=O)C3C(=O)N(c4ccccc4)C(=O)C132 (stereo unspecified) ?
Result: 23.4 µM (inactive)

Q: Tell me reported GI50 for `O/N=C1\C/C(=N\O)c2c(Br)sc(Br)c21` , tested with DU-145.
Result: 39.1 µM (inactive)

----------
system: HOP-18; experiment: NCI tumour cell line growth inhibition, 48 h
Activity calls are given as the source filed them. Rule as the data show it: active = GI50 up to about 1.1 µM and inactive = higher.
GI50 reference

Solved cases below.
INSERT INTO measurements (smiles_notation, meas_value) VALUES
  ('O=c1c(NO)c([N+](=O)[O-])cnn1-c1ccccc1', '22.1 µM (inactive)'),
  ('On1c(-c2ccccc2)c(-c2ccccc2N2CCCC2)c2ccccc21', '> 100 µM (inactive)'),
  ('Nc1nc(=O)n([C@@H]2CC[C@H](CO)O2)cc1F', '> 100 µM (inactive)'),
  ('CS(=O)(=O)c1ccc(-c2cc(-c3ccc(S(C)(=O)=O)cc3)[n+](-c3cc(-c4ccccc4)c([O-])c(-c4ccccc4)c3)c(-c3ccc(S(C)(=O)=O)cc3)c2)cc1', '> 100 µM (inactive)');

Q: Any idea what its GI50 is? The compound is `Cn1nc(-c2ccccc2)c(C(=O)/C=C/c2ccc(F)cc2)c(N2CCCCC2)c1=O`
Result: 5.66 µM (inactive)

----------
test system: HOP-62; test: NCI tumour cell line growth inhibition, 48 h
Active and inactive are the calls of the source. No stated cut-off is given here; in the data, active = GI50 up to about 1.1 µM and inactive = higher.
Outcome field: choose from 1 (yes) for active, 0 (no) for inactive

Solved entries:
INSERT INTO results (compound, assayed_target, cat) VALUES
  ('CC(=O)O[C@H]1CCC2[C@@H]3CCC4NC(=O)C(C#N)C[C@]4(C)C3CC[C@@]21C (stereo not given in full)', 'HOP-62', '0 (no)'),
  ('COc1ccc(C(=O)c2[nH]c(Nc3cc(C)ccn3)c(C(=S)Nc3ccccc3)c2N)cc1', 'HOP-62', '0 (no)'),
  ('c1cc(CN2CCNCCNCCNCC2)cc(CN2CCNCCNCCNCC2)c1', 'HOP-62', '0 (no)'),
  ('COc1c(Cl)cc(Cl)cc1S(=O)O', 'HOP-62', '0 (no)');

Q: Dear all, I need the recorded test outcome for COc1ccc2c3c1OC1C4(CCC5C(C2)N(CC2CC2)CCC351)OCCO4 (stereo not given) , thank you.
Result: 0 (no)

Q: Tell me the assay call for CCCCCCCCCCCCCCCCCC(=O)OCC(COC(=O)CCCN)OC(=O)CCCN (stereo not given) please.
Result: 0 (no)

Q: Hi, do you know how `Nc1nc(N)c2ncn(Cc3ccccc3CCl)c2n1` came out in this test?
Result: 0 (no)

Q: Status in this test for C=C(C)C(=O)O[C@H]1C[C@@]23O[C@@H]2CCC(=C[C@H]2OC(=O)C(=C)[C@H]12)COC3O (stereo not given in full) ?
Result: 0 (no)

Q: Field: outcome | Entry: CCOC(=O)C1=C(C)N(C)C23OC4(C(=O)OC)CC2c2ccccc2C1N3C4=O (stereo not given)
Result: 0 (no)

Q: Would you mind telling me which call this test gave `C=CCN1C(=O)/C(=C/c2ccc(OC)cc2)NC1=S` ?
Result: 0 (no)

Q: Lab log entry: CSCCC(N)P(C)(=O)O (stereo not given) — outcome as called in the assay?
Result: 0 (no)

Q: Kindly provide the recorded test outcome for the following compound: `O=C1SC(c2ccc(Cl)cc2)(c2ccc(Cl)cc2)c2ccccc21`
Result: 0 (no)

Q: Lab log entry: O=C(NC1CCCC1=O)c1ccccc1 (stereo not given) — outcome as called in the assay?
Result: 0 (no)

Q: Could you kindly confirm the outcome this assay logged for `CC1=CC(=O)[C@@H](O)[C@]2(C)[C@H]3[C@@]4(O)OC[C@]35[C@H]([C@@H](C)[C@H]4O)[C@@H](OC(=O)C(C)(C)CO)C(=O)O[C@@H]5C[C@@H]12` ?
Result: 1 (yes)

Q: Per the assay record, what outcome was assigned to CN1C(=O)C(=O)N2c3ccc(Cl)cc3C3(c4ccccc4)N=CC12O3 (stereo not given) ?
Result: 0 (no)

Q: Tell me the assay call for COc1ccc(C(C)c2cc3c(cc2O)OCO3)cc1 (stereo not given) please.
Result: 0 (no)

----------
test system: UACC-62; test: NCI tumour cell line growth inhibition, 48 h
Activity calls are given as the source filed them. Rule as the data show it: active = GI50 up to about 1.1 µM and inactive = higher.
Reported property: GI50

INSERT INTO results (compound, reported_property, meas_value) VALUES
  ('COc1cccc(CC(C)N)c1 (configuration not stated)', 'GI50', '> 100 µM (inactive)'),
  ('CCOC(=O)c1c(Sc2ccc([N+](=O)[O-])cc2[N+](=O)[O-])nc2c3ccccc3ccn12', 'GI50', '> 39.8 µM (inactive)'),
  ('c1cc(CN2CCNCCNCCNCC2)cc(CN2CCNCCNCCNCC2)c1', 'GI50', '> 100 µM (inactive)'),
  ('O=C1NC(=S)NC(=O)C1=C/C=C/c1ccc([N+](=O)[O-])cc1', 'GI50', '11 µM (inactive)');

Q: Fill in the blank: the reported GI50 of `Cc1csc2c1C(=O)c1ccsc1C2=O` is ____.
Result: 1.69 µM (inactive)

Q: Give the measured GI50 of `N#Cc1ccc(/N=C(/NCC(=O)O)Nc2ccc3ccccc3c2)cc1` .
Result: > 10 µM (inactive)

Q: Can you look up the measured GI50 of `CCCC(=O)n1[nH]c(=O)n(C(C)(C)C)c1=O` for me?
Result: > 100 µM (inactive)

----------
test system: OVCAR-5; assay: NCI tumour cell line growth inhibition, 48 h
Active and inactive are the calls of the source. Cut-off read from the data, not from the text of the source: active = GI50 up to about 1.1 µM and inactive = higher.
Reported property: GI50

INSERT INTO results (molecule, reported_property, meas_value) VALUES
  ('CC(N)C(C)Cc1ccccc1 (configuration not stated)', 'GI50', '> 100 µM (inactive)'),
  ('CC(=O)C1=C(C)N(c2ccc(C)cc2)C2(O)C=CC(=O)C3C(=O)N(c4ccccc4)C(=O)C132 (configuration not stated)', 'GI50', '55.2 µM (inactive)'),
  ('Cc1cccc(Nc2nn3c(=O)c4c5c(sc4nc3s2)CCCC5)c1', 'GI50', '87.7 µM (inactive)'),
  ('O=C(CSCC(=O)N/N=C/c1cc(I)cc(I)c1O)N/N=C/c1cc(I)cc(I)c1O', 'GI50', '39.5 µM (inactive)'),
  ('CCC(=O)O[C@H]1CC[C@H]2[C@@H]3CCC4=C/C(=N/NC(=O)c5cccc6c(=O)c7ccccc7[nH]c56)CC[C@]4(C)[C@H]3CC[C@]12C', 'GI50', '> 25 µM (inactive)'),
  ('COC(=O)/C(C#N)=C(\Nc1ccccc1)N1CCOCC1', 'GI50', '> 100 µM (inactive)');

Now examine the next entry.
Q: Please tell me: GI50 of CCOc1ccc(NCC2CC/C(=C\C=C\c3ccccc3)C2=O)cc1 (configuration not stated) , system OVCAR-5?
Result: 21.5 µM (inactive)
